- System: Pseudomonas aeruginosa J-169
- Assay procedure: MIC, agar plate doubling dilution method
- Assay type: cell-based
- Study conditions: J169, HI agar, 37° C., 20 hours, read-out: minimum inhibitory concentration (MIC)
// values below are reported MIC

Molecule: COCCN(C(=O)N[C@@H](C(=O)N[C@@H]1C(=O)N2[C@@H]1SC(C)(C)[C@@H]2C(=O)O)c1ccccc1)C(=O)c1ccc(O)c(O)c1
System tested: Pseudomonas aeruginosa J-169
MIC: 3.12 µg/mL

Molecule: CC(=O)OCCCN(C(=O)N[C@@H](C(=O)N[C@@H]1C(=O)N2[C@@H]1SC(C)(C)[C@@H]2C(=O)O)c1ccccc1)C(=O)c1ccc(O)c(O)c1 [compound (e)]
System tested: Pseudomonas aeruginosa J-169
MIC: 3.12 µg/mL

Molecule: CC1(C)S[C@@H]2[C@H](NC(=O)[C@H](NC(=O)N(CCCO)C(=O)c3ccc(O)c(O)c3)c3ccc(O)cc3)C(=O)N2[C@H]1C(=O)O
System tested: Pseudomonas aeruginosa J-169
MIC: 0.78 µg/mL

Molecule: CC1(C)S[C@@H]2[C@H](NC(=O)[C@H](NC(=O)N(CCCO)C(=O)c3ccc(O)c(O)c3)c3ccccc3)C(=O)N2[C@H]1C(=O)O
System tested: Pseudomonas aeruginosa J-169
MIC: 0.78 µg/mL

Molecule: CC1(C)S[C@@H]2[C@H](NC(=O)[C@H](NC(=O)N(CCO)C(=O)c3ccc(O)c(O)c3)c3ccccc3)C(=O)N2[C@H]1C(=O)O
System tested: Pseudomonas aeruginosa J-169
MIC: 3.12 µg/mL

Molecule: CN(C(=O)N[C@@H](C(=O)N[C@@H]1C(=O)N2[C@@H]1SC(C)(C)[C@@H]2C(=O)O)c1ccccc1)C(=O)c1ccc(O)c(O)c1 [compound Z, reference compound]
System tested: Pseudomonas aeruginosa J-169
MIC: 0.2 µg/mL

Molecule: CC1(C)S[C@@H]2[C@H](NC(=O)[C@H](NC(=O)N(CCOCCO)C(=O)c3ccc(O)c(O)c3)c3ccccc3)C(=O)N2[C@H]1C(=O)O
System tested: Pseudomonas aeruginosa J-169
MIC: 0.78 µg/mL

Molecule: CCN1CCN(C(=O)N[C@@H](C(=O)N[C@@H]2C(=O)N3[C@@H]2SC(C)(C)[C@@H]3C(=O)O)c2ccccc2)C(=O)C1=O [piperacillin, reference compound]
System tested: Pseudomonas aeruginosa J-169
MIC: 12.5 µg/mL
